# SYSTEM: Myc proto-oncogene protein (Homo sapiens)
# Sequence (P01106 whole entry, the tested form may be a part): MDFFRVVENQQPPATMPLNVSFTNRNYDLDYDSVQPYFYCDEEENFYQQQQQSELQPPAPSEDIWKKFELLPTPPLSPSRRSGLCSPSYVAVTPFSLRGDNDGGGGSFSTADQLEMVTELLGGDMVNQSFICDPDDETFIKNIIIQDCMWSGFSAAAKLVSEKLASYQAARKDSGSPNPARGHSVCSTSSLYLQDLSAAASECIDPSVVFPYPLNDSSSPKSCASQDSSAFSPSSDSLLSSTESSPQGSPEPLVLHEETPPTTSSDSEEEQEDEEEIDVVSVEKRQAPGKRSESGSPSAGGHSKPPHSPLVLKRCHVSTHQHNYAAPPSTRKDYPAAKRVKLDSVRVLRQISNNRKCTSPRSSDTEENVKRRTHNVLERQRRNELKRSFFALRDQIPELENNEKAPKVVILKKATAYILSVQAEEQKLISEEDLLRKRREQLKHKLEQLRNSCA
# TEST METHOD NOTES: Binding affinity to recombinant truncated N-terminal hexahistidine-tagged c-Myc (363 to 381 residues) bHLH-ZIP domain (unknown origin) expressed in Escherichia coli BL21 DE3 (pLysS) by fluorescence polarization assay
TEST READOUT: Kd (nM)

{"COMPOUND SMILES": "O=C1NC(=S)S/C1=C\\c1ccc(C(=O)NCCCCCNC(=O)c2ccccc2Nc2ccc([N+](=O)[O-])c3nonc23)cc1", "VALUE REPORTED": 10}

###

# System: Daudi
# TEST METHOD NOTES: Cytotoxicity against human Daudi Burkitt lymphoma cells expressing c-Myc assessed as growth inhibition after 4 to 5 days by MTT assay
# Format: functional, cell-based
TEST READOUT: IC50

{"COMPOUND SMILES": "CCc1ccc(/C=C2\\SC(=O)N(CCCCCNC(=O)c3cccc(Nc4ccc([N+](=O)[O-])c5nonc45)c3)C2=O)cc1", "VALUE REPORTED": "> 10 µM"}
{"COMPOUND SMILES": "O=C(CNC(=O)c1ccc(Nc2ccc([N+](=O)[O-])c3nonc23)cc1)NCCCCCNC(=O)c1ccc(/C=C2\\SC(=S)NC2=O)cc1", "VALUE REPORTED": "7 to 11 µM"}
{"COMPOUND SMILES": "O=C(NCCCCCN1C(=O)S/C(=C\\c2ccc(F)cc2)C1=O)c1ccccc1Nc1ccc([N+](=O)[O-])c2nonc12", "VALUE REPORTED": "1 to 1.2 µM"}
{"COMPOUND SMILES": "O=C(NCCCCCN1C(=O)S/C(=C\\c2ccc(F)cc2)C1=O)c1ccc(Nc2ccc([N+](=O)[O-])c3nonc23)cc1", "VALUE REPORTED": "6 to 7 µM"}
{"COMPOUND SMILES": "O=C(NCCCCCCN1C(=O)S/C(=C\\c2ccc(F)cc2)C1=O)c1ccc(Nc2ccc([N+](=O)[O-])c3nonc23)cc1", "VALUE REPORTED": "1.2 µM"}
{"COMPOUND SMILES": "CCc1ccc(/C=C2\\SC(=O)N(CCCCCNC(=O)c3ccc(Nc4ccc([N+](=O)[O-])c5nonc45)cc3)C2=O)cc1", "VALUE REPORTED": "2 to 4 µM"}
{"COMPOUND SMILES": "O=C(NCCCCCCN1C(=O)S/C(=C\\c2ccc(F)cc2)C1=O)c1ccccc1Nc1ccc([N+](=O)[O-])c2nonc12", "VALUE REPORTED": "6 to 8 µM"}
{"COMPOUND SMILES": "CCc1ccc(/C=C2\\SC(=O)N(CCCCCNC(=O)CNC(=O)c3ccc(Nc4ccc([N+](=O)[O-])c5nonc45)cc3)C2=O)cc1", "VALUE REPORTED": "4 to 6 µM"}
{"COMPOUND SMILES": "CCc1ccc(/C=C2\\SC(=O)N(CCCCNC(=O)c3ccccc3Nc3ccc([N+](=O)[O-])c4nonc34)C2=O)cc1", "VALUE REPORTED": "2 to 2.5 µM"}
